Data provenance: PubChem BioAssay AID686979

Experiment: qHTS for Inhibitors of human tyrosyl-DNA phosphodiesterase 1 (TDP1): qHTS in cells in presence of CPT; also: nearly all actives have a fitted effect of over 55% in size; also: potency is read from the fitted curve at half-maximal effect
Details: chicken DT40 Tdp1-/-;hTDP1 cells + 20 nM CPT, ATP luminescence, 48 h; series mostly up to 46.2 µM
The campaign covered roughly 420,000 compounds. About 50,000 (12%) were called active. Roughly 26% stayed inconclusive and do not appear here. The entries come from a sample that favours actives as a whole.
observable: Potency

Check out these entries, answers already filled in.
Cc1nn(-c2ccccc2)c(C)c1NC(=O)COc1ccc(Cl)cc1Cl : 16.4 µM (active)
CC(OC(=O)c1ccc(NC(=O)CC#N)cc1)C(=O)Nc1ccc(S(=O)(=O)N2CCCC2)cc1 (stereo not given) : inactive
C#CCNc1ccc(C(=O)OCC)cc1 : inactive
Cc1cc(C)c(CN2CCN(C(=O)Cn3ccc(NC(=O)OCc4ccccc4)nc3=O)CC2)c(C)c1 : 5.17 µM (active)
CCC1CCCCN1C(=O)CSc1nc2c(c(=O)n(C)c(=O)n2C)n1C (stereo not given) : inactive

Requested field: Potency. Item: `CCCc1c(C)nc2scc(-c3ccc(Cl)cc3)n2c1=O`
inactive

Report Potency for `Cc1ccc(C(=O)Nc2ccc(OCc3cc(=O)n4c(C)csc4n3)cc2)cc1` please.
inactive
